# Tested on: AD plaques
# Assay Protocol: Deposition of ^125 I-labelled β-amyloid peptides onto plaques in AD brain tissue (homogenate binding, autoradiography)
# Design: species or system human
# Measurement Conditions: labelled fragment combined with AD amyloid plaque or silk; relative to βA(1-40)-OH
Ends that are not written are not given here.
Readout Kind: deposition activity of fragment (active / not active)

Substance	Value Measured
βA(10-35)-NH2: 26 residue carboxyamidated fragment from the central region of the βA sequence (YEVHHQKLVFFAEDVGSNKGAIIGLM-NH2; also: 125I at Tyr10 as tracer (name unlabelled))	active
βA(10-35)-OH: β-amyloid fragment residues 10-35, free carboxyl terminus (YEVHHQKLVFFAEDVGSNKGAIIGLM-OH)	active
